K0.5-mut/K0.5-wt values, listed per item
# assay system: Antithrombin III (plasma purified human AT-III, Molecular Innovations)
# assay: same assay; ratio to recombinant wild-type FIXa (Catalyst Biosciences WT)
Quick one: just the number, no unit, thanks!

FIXa-R318Y/R403E/E410N (protein) chain 1: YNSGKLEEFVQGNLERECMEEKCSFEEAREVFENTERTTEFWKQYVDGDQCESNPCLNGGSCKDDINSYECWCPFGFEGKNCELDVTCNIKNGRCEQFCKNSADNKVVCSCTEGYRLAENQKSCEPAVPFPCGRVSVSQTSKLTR chain 2: VVGGEDAKPGQFPWQVVLNGKVDAFCGGSIVNEKWIVTAAHCVETGVKITVVAGEHNIEETEHTEQKRNVIRIIPHHNYNAAINKYNHDIALLELDEPLVLNSYVTPICIADKEYTNIFLKFGSGYVSGWGRVFHKGYSALVLQYLRVPLVDRATCLRSTKFTIYNNMFCAGFHEGGRDSCQGDSGGPHVTEVEGTSFLTGIISWGEECAMKGKYGIYTKVSEYVNWIKNKTKLT :: 366

Please examine the following record next.
## Task Identify the reported K0.5-mut/K0.5-wt for the following entry. FIXa-D203N/F205T/E410N (protein) chain 1: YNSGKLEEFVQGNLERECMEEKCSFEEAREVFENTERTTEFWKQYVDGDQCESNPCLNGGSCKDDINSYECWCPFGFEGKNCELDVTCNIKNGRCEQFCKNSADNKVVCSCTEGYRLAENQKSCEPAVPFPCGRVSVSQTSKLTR chain 2: VVGGEDAKPGQFPWQVVLNGKVNATCGGSIVNEKWIVTAAHCVETGVKITVVAGEHNIEETEHTEQKRNVIRIIPHHNYNAAINKYNHDIALLELDEPLVLNSYVTPICIADKEYTNIFLKFGSGYVSGWGRVFHKGRSALVLQYLRVPLVDRATCLRSTKFTIYNNMFCAGFHEGGRDSCQGDSGGPHVTEVEGTSFLTGIISWGEECAMKGKYGIYTKVSRYVNWIKNKTKLT
## Result 19.5

// provenance: patent US20210238260
